assay-summary: gradient 5% acetonitrile 3 min, to 50% in 2 min, to 85% in 15 min, held 3 min, 100 µL/min
assay-conditions: column: Zorbax Extend-C18 2.1 x 50 mm; eluents: water / acetonitrile, 0.1% formic acid
result-type: RP-LC retention time (s)

Solved cases (2 shown):
{"compound": "CCCNC(=O)N1CCc2cc(-c3ccc(C(=O)N4CCOCC4)cc3)ccc21", "result-type": "RP-LC retention time", "unit-symbol": "s", "measured": 732}
{"compound": "COc1ccc(-c2noc(C3CCCN3C(=O)c3cccnc3)n2)cc1 (centres undefined)", "result-type": "RP-LC retention time", "unit-symbol": "s", "measured": 725}

P: CC(C)Cc1ccc(S(=O)(=O)N2CCc3c(c(-c4nnc(-c5ccccc5F)o4)nn3C)C2)cc1
Q: CCCNC(=O)C1CCN(c2ccc(SCC(=O)Nc3ccc(S(C)(=O)=O)cc3)nn2)CC1
Data request: Of P and Q , whose reported RP-LC retention time is numerically smaller? Choose, then provide that item's label.
Data returned: Q

----------
assay-summary: gradient 5% acetonitrile 3 min, to 50% in 2 min, to 85% in 15 min, held 3 min, 100 µL/min
assay-conditions: column: Zorbax Extend-C18 2.1 x 50 mm; eluents: water / acetonitrile, 0.1% formic acid
result-type: RP-LC retention time (s)

Solved cases (3 shown):
{"compound": "CCN(CC)S(=O)(=O)c1ccc2c(c1)c(=O)c(C(=O)N1CCN(c3ccccn3)CC1)cn2C", "unit-symbol": "s", "RP-LC retention time": 588}
{"compound": "COc1ccc(N2CCN(C(=O)C3CC(=O)N(CCc4ccccc4)C3)CC2)cc1 (stereo not given)", "unit-symbol": "s", "RP-LC retention time": 729}
{"compound": "CC(=O)c1ccc(NS(=O)(=O)c2ccc3ccccc3c2)cc1", "unit-symbol": "s", "RP-LC retention time": 822}

P: COc1ccc(-c2noc(C3CCCN3C(=O)Nc3ccccc3C(F)(F)F)n2)cc1 (stereo not given)
Q: CC(C)NC(=O)CCC(=O)N1CCc2c(c(C(=O)N3CCCCC3)nn2C)C1
Data request: Of P and Q , whose reported RP-LC retention time is numerically smaller? Choose, then provide that item's label.
Data returned: Q
(Q: 617 s, P: 1010 s)

----------
assay-summary: gradient 5% acetonitrile 3 min, to 50% in 2 min, to 85% in 15 min, held 3 min, 100 µL/min
assay-conditions: column: Zorbax Extend-C18 2.1 x 50 mm; eluents: water / acetonitrile, 0.1% formic acid
result-type: RP-LC retention time (s)

{"compound": "Cc1cccc(NC(=O)Cn2cnc3c(sc4nc(-c5ccccc5)ccc43)c2=O)c1", "RP-LC retention time [s]": 1040}
{"compound": "CCN1CCN(C(=O)CN2C(=O)c3ccccc3Sc3ncccc32)CC1", "RP-LC retention time [s]": 581}
{"compound": "Cc1ccc(-c2ccc(-n3nc(C)c(S(=O)(=O)Nc4ccc5c(c4)OCCO5)c3C)nn2)cc1", "RP-LC retention time [s]": 1010}
{"compound": "Cc1nn(C(C)C)c(C)c1S(=O)(=O)N1CCN(C(=O)c2ccsc2)CC1", "RP-LC retention time [s]": 775}

A: CCCCNC(=O)CCC(=O)N1CC2CCCN2c2ccccc21 (centres undefined)
B: OCC1CN(c2ccncn2)CC12CCN(Cc1c[nH]c3ccccc13)CC2 (centres undefined)
Data request: Recorded RP-LC retention time values differ for A and B ; which one is higher? Choose, then provide that item's label.
Data returned: A

1: O=C(CN1CCC(c2nc(-c3ccc(F)cc3)no2)CC1)Nc1ccc2c(c1)OCO2
2: Cc1ccc(N2CC(c3noc(-c4ccc(C)c(C)c4)n3)CC2=O)cc1 (centres undefined)
Data request: Recorded RP-LC retention time values differ for 1 and 2 ; which one is higher? Choose, then provide that item's label.
Data returned: 2
(2: 1150 s, 1: 720 s)

1: CC1(C)CC(=O)C2=C(C1)N(CC1CCCO1)C(=O)C2(NC(=O)c1ccc(F)cc1)C(F)(F)F (centres undefined)
2: CC(C)C(=O)NCCc1csc(C2CCCN(C(=O)C3CCCO3)C2)n1 (centres undefined)
Data request: Recorded RP-LC retention time values differ for 1 and 2 ; which one is higher? Choose, then provide that item's label.
Data returned: 1

----------
assay-summary: gradient 5% acetonitrile 3 min, to 50% in 2 min, to 85% in 15 min, held 3 min, 100 µL/min
assay-conditions: column: Zorbax Extend-C18 2.1 x 50 mm; eluents: water / acetonitrile, 0.1% formic acid
result-type: RP-LC retention time (s)

{"compound": "CCc1nc(-c2csc(S(=O)(=O)N3CCCC(C(=O)NCc4ccccc4)C3)c2)no1 (stereo not given)", "unit-symbol": "s", "RP-LC retention time": 960}
{"compound": "CC(C)Cn1c(=O)c2nscc2n(CC(=O)NC2CCCC2)c1=O", "unit-symbol": "s", "RP-LC retention time": 731}
{"compound": "CCCCS(=O)(=O)N1CCC2(CC1)C(=O)N(C)C(=O)N2C", "unit-symbol": "s", "RP-LC retention time": 671}

P: O=[N+]([O-])c1ccc(-c2cn3ccccc3n2)cc1
Q: O=S(=O)(c1ccc(-c2nnc(C3CCCC3)o2)o1)N1CCCC1
Data request: Recorded RP-LC retention time values differ for P and Q ; which one is higher? Choose, then provide that item's label.
Data returned: Q

----------
assay-summary: gradient 5% acetonitrile 3 min, to 50% in 2 min, to 85% in 15 min, held 3 min, 100 µL/min
assay-conditions: column: Zorbax Extend-C18 2.1 x 50 mm; eluents: water / acetonitrile, 0.1% formic acid
result-type: RP-LC retention time (s)

{"molecule": "CCOc1ccc(/C=C/C(=O)Nc2nc(-c3ccccc3)cs2)cc1", "result-type": "RP-LC retention time", "measured": 1140}
{"molecule": "Cc1nc(-c2csc(S(=O)(=O)N3CCCC(C(=O)Nc4ccc(Cl)cc4C)C3)c2)no1 (stereo not given)", "result-type": "RP-LC retention time", "measured": 1040}
{"molecule": "CCCc1cc(NC)n2ncc(-c3ccccc3)c2n1", "result-type": "RP-LC retention time", "measured": 683}

I: CC(C)c1noc(-c2cc(=O)n(CC(=O)Nc3cccc(F)c3)c3ccccc23)n1
II: Cc1noc(COC2CCCN(C(=O)c3ccc4cc[nH]c4c3)C2)n1 (stereo not given)
Data request: Recorded RP-LC retention time values differ for I and II ; which one is higher? Choose, then provide that item's label.
Data returned: I

I: CC(C)(C)n1nc(C2CC2)cc1NC(=O)Nc1ccccc1
II: CC(=O)Nc1cc(C(=O)NCC(C)C)c2ccc(C)nc2c1
Data request: Of I and II , whose reported RP-LC retention time is numerically smaller? Choose, then provide that item's label.
Data returned: II
(II: 574 s, I: 889 s)

----------
assay-summary: gradient 5% acetonitrile 3 min, to 50% in 2 min, to 85% in 15 min, held 3 min, 100 µL/min
assay-conditions: column: Zorbax Extend-C18 2.1 x 50 mm; eluents: water / acetonitrile, 0.1% formic acid
result-type: RP-LC retention time (s)

a: CCN1CCN(Cc2ccc(C(=O)N3CCN(c4ccc(C)cc4)CC3)cc2)C(=O)C1=O
b: O=C(Cc1ccc2c(c1)OCO2)N(CC1CCCO1)c1nc2c(F)cc(F)cc2s1 (centres undefined)
Data request: Of a and b , whose reported RP-LC retention time is numerically smaller? Choose, then provide that item's label.
Data returned: a
(a: 694 s, b: 1180 s)

----------
assay-summary: gradient 5% acetonitrile 3 min, to 50% in 2 min, to 85% in 15 min, held 3 min, 100 µL/min
assay-conditions: column: Zorbax Extend-C18 2.1 x 50 mm; eluents: water / acetonitrile, 0.1% formic acid
result-type: RP-LC retention time (s)

{"compound": "O=C(Nc1cc(-c2ccccn2)no1)C1CCCCC1", "unit-symbol": "s", "RP-LC retention time": 827}

P: Cc1cccc(N2CCN(C(=O)c3cc(C4CC4)[nH]n3)CC2)c1C
Q: CCc1ccc2[nH]c3c(c(=O)c2c1)CN(CC(=O)NCc1cccc(OC)c1)CC3
Data request: Recorded RP-LC retention time values differ for P and Q ; which one is higher? Choose, then provide that item's label.
Data returned: P

A: O=C(Nc1cccc(F)c1)N1CCN(Cc2nc3cc(Cl)ccc3o2)CC1
B: O=C(Nc1ccc(-c2nc(-c3cccc(Br)c3)co2)cc1)c1ccco1
Data request: Recorded RP-LC retention time values differ for A and B ; which one is higher? Choose, then provide that item's label.
Data returned: B
(B: 1150 s, A: 784 s)

P: Cc1nc(C(=O)Nc2ccc(Cl)cc2)c(C)o1
Q: O=C1CCC2(CNC(=O)c3cnccn3)CCCC=C2N1 (stereo not given)
Data request: Of P and Q , whose reported RP-LC retention time is numerically smaller? Choose, then provide that item's label.
Data returned: Q
